Test: In vitro metabolic stability in rat liver microsomes
Format: in vitro ADME
Details: pH 7.4; rat liver microsomes; read-out: CLint, ivtro
Procedure: The phosphate buffer (pH 7.4, 100 mM) and (300 mM) were prepared in deionized water. NADP and IA were dissolved in phosphate buffer and MgCl2 solution and then added 20 μL IDH (18 units/mg protein) and mixed. […] NHPPC and control concentrations were determined by LC-MS/MS at each time point (n = 3). […] Hepatic intrinsic clearance was estimated by using the scaling factors and calculated by using the following equation (Lave et al. [1997]). […]
observed_property: microsomal CLint at 1 µM
# number then unit; no other words

For reference, reported microsomal CLint at 1 µM for COc1ccc(CNc2nc(N3CCC[C@H]3CO)ncc2C(=O)NCc2ccccn2)cc1Cl [NHPPC] stands at 23.3 µL/min/mg

----------
assay: In vivo pharmacokinetic study in rats; set-up: species or system male Sprague–Dawley rats; conditions: male, Sprague-Dawley, plasma; rat, IV 1 mg/kg
observed_property: AUC(0-inf) (ng·h/mL)
// note: answer is a bare numeric in ng·h/mL

Lab book: AUC(0-inf) of "COc1ccc(CNc2nc(N3CCC[C@H]3CO)ncc2C(=O)NCc2ccccn2)cc1Cl" noted as 866

----------
test: In vivo pharmacokinetic study in rats; set-up: species or system male Sprague–Dawley rats; conditions: male, Sprague-Dawley, plasma; rat, PO 2 mg/kg
observed_property: AUC(0-inf)
Output should be the measured figure followed by the unit it is expressed in.

Just so you know, measured AUC(0-inf) for "COc1ccc(CNc2nc(N3CCC[C@H]3CO)ncc2C(=O)NCc2ccccn2)cc1Cl" came out at 593 ng·h/mL

----------
experiment: Plasma protein binding by equilibrium dialysis (human); assay type: in vitro ADME; settings: human, plasma, pH 7.4, human plasma, 0.2 µM, equilibrium dialysis 6 h; read-out: Mean PPB % (converted)
observed_property: fraction unbound at 6 h, 0.2 µM
Give only the figure.

// "COc1ccc(CNc2nc(N3CCC[C@H]3CO)ncc2C(=O)NCc2ccccn2)cc1Cl" : fraction unbound at 6 h, 0.2 µM value = 0.007

----------
test: In vitro metabolic stability in rat liver microsomes; format: in vitro ADME; settings: rat, liver microsomes, pH 7.4, rat liver microsomes, 60 min, in the presence of NADPH, 1 μM; read-out: percent remaining
observed_property: remaining at 1 h, 1 µM (%)
Kindly answer with a numeric value in %, unit omitted.

The compound listed as COc1ccc(CNc2nc(N3CCC[C@H]3CO)ncc2C(=O)NCc2ccccn2)cc1Cl [NHPPC] shows remaining at 1 h, 1 µM equal to 42.8

----------
assay: In vitro metabolic stability in dog liver microsomes; assay type: in vitro ADME; details: liver microsomes (pooled), pH 7.4; dog liver microsomes
observed_property: half-life at 1 µM (min)
Kindly provide the numeric value in min only, without the unit symbol.

Recorded half-life at 1 µM (compound "COc1ccc(CNc2nc(N3CCC[C@H]3CO)ncc2C(=O)NCc2ccccn2)cc1Cl" ): 8.2

----------
assay: In vitro metabolic stability in human liver microsomes; format: in vitro ADME; conditions: human, liver microsomes, pH 7.4, human liver microsomes, 60 min, without NADPH regenerating system; read-out: percent remaining
observed_property: remaining at 1 h, 1 µM

Quick note, remaining at 1 h, 1 µM for "COc1ccc(CNc2nc(N3CCC[C@H]3CO)ncc2C(=O)NCc2ccccn2)cc1Cl" landed at 99.4%

----------
test: Plasma protein binding by equilibrium dialysis (human); format: in vitro ADME; conditions: human, plasma, pH 7.4, human plasma, 1 µM, equilibrium dialysis 6 h; read-out: Mean PPB % (converted)
observed_property: fraction unbound at 6 h, 1 µM
Lab note: record the figure alone, no unit after it.

fraction unbound at 6 h, 1 µM measured on "COc1ccc(CNc2nc(N3CCC[C@H]3CO)ncc2C(=O)NCc2ccccn2)cc1Cl" = 0.005

----------
assay: Stability in plasma, 6 h incubation at 37°C (dog); type: in vitro ADME; settings: beagle, 1 µM, n = 3, read-out: Mean drug remaining %
observed_property: remaining at 6 h, 1 µM (%)
Form entry: value (%) — number only.

For "COc1ccc(CNc2nc(N3CCC[C@H]3CO)ncc2C(=O)NCc2ccccn2)cc1Cl" the compound record lists remaining at 6 h, 1 µM as 100

----------
experiment: In vivo pharmacokinetic study in dogs; design: species or system male Beagle dogs; conditions: male, Beagle, plasma; dog, IV 1 mg/kg
observed_property: half-life
Answer with the number, then the unit.

Field half-life (entry "COc1ccc(CNc2nc(N3CCC[C@H]3CO)ncc2C(=O)NCc2ccccn2)cc1Cl" ) reads 79.8 min

----------
assay: Stability in plasma, 6 h incubation at 37°C (dog); type: in vitro ADME; settings: beagle, mean of 0.2 and 1 µM, read-out: Mean drug remaining %
observed_property: remaining at 6 h (%)
Please respond with the number in % and leave the unit unwritten.

Lookup result for "COc1ccc(CNc2nc(N3CCC[C@H]3CO)ncc2C(=O)NCc2ccccn2)cc1Cl" ; measured remaining at 6 h: 100

----------
assay: In vivo pharmacokinetic study in dogs; set-up: species or system male Beagle dogs; conditions: male, Beagle, plasma; dog, IV 1 mg/kg; read-out: MRT0-∞
observed_property: MRT inf (h)
Just the number please, in h, no unit attached.

Short answer for "COc1ccc(CNc2nc(N3CCC[C@H]3CO)ncc2C(=O)NCc2ccccn2)cc1Cl" : MRT inf was 1.15

----------
test: In vivo pharmacokinetic study in dogs; parameters: species or system male Beagle dogs; conditions: male, Beagle, plasma; dog, PO 1 mg/kg
observed_property: Tmax (min)
Expressed in min, but write only the number.

Documented Tmax of "COc1ccc(CNc2nc(N3CCC[C@H]3CO)ncc2C(=O)NCc2ccccn2)cc1Cl" : 30

----------
Experiment: Plasma protein binding by equilibrium dialysis (dog)
Format: in vitro ADME, Beagle dog
Conditions: beagle, dog, plasma, pH 7.4, dog plasma, 0.2 µM, equilibrium dialysis 6 h; read-out: Mean PPB % (converted)
Protocol: The phosphate buffer (100 mM) and sodium hydroxide solution (1.0 M) were prepared in deionized water. […] PPB was determined by equilibrium dialysis method. […] The stability, device recovery and PPB were calculated using the following equations: Remaining at 6 h (%)=C6h/C0h×100%, Device recovery (%)=CDonor+CReceiver/C6h×100%, PPB (%)=CDonor−CReceiver/CDonor×100%.
observed_property: fraction unbound at 6 h, 0.2 µM
API doc: respond with a numeric literal and nothing else, no unit.

// sample "COc1ccc(CNc2nc(N3CCC[C@H]3CO)ncc2C(=O)NCc2ccccn2)cc1Cl" , its fraction unbound at 6 h, 0.2 µM was 0.008

----------
assay: In vivo pharmacokinetic study in dogs; parameters: species or system male Beagle dogs; conditions: male, Beagle, plasma; dog, PO 1 mg/kg
observed_property: AUC(0-inf) (ng·h/mL)
All answers are understood in ng·h/mL, so give the number only.

What the record says about "COc1ccc(CNc2nc(N3CCC[C@H]3CO)ncc2C(=O)NCc2ccccn2)cc1Cl" : AUC(0-inf) is 364

----------
experiment: Stability in plasma, 6 h incubation at 37°C (rat); assay type: in vitro ADME; conditions: Sprague-Dawley, 1 µM, n = 3, read-out: Mean drug remaining %
observed_property: remaining at 6 h, 1 µM
Please append the unit to your numeric answer.

In plain terms, "COc1ccc(CNc2nc(N3CCC[C@H]3CO)ncc2C(=O)NCc2ccccn2)cc1Cl" has a documented remaining at 6 h, 1 µM of 102%

----------
assay: In vivo pharmacokinetic study in rats; set-up: species or system male Sprague–Dawley rats; conditions: male, Sprague-Dawley, plasma; rat, IV 1 mg/kg; read-out: Vss
observed_property: Vd (L/kg)
Only the number, expressed in L/kg, is required.

Sample "COc1ccc(CNc2nc(N3CCC[C@H]3CO)ncc2C(=O)NCc2ccccn2)cc1Cl" ; Vd observed: 6.5

----------
Assay: In vitro metabolic stability in dog liver microsomes
Type: in vitro ADME
Details: liver microsomes (pooled), pH 7.4; dog liver microsomes; read-out: CLint, ivtro
Description: The phosphate buffer (pH 7.4, 100 mM) and (300 mM) were prepared in deionized water. NADP and IA were dissolved in phosphate buffer and MgCl2 solution and then added 20 μL IDH (18 units/mg protein) and mixed. […] NHPPC and control concentrations were determined by LC-MS/MS at each time point (n = 3). […] Hepatic intrinsic clearance was estimated by using the scaling factors and calculated by using the following equation (Lave et al. [1997]). […]
observed_property: microsomal CLint at 1 µM (µL/min/mg)
Give just the number in µL/min/mg; leave the unit off.

// recorded microsomal CLint at 1 µM for COc1ccc(CNc2nc(N3CCC[C@H]3CO)ncc2C(=O)NCc2ccccn2)cc1Cl [NHPPC] : 120

----------
test: In vivo pharmacokinetic study in dogs; parameters: species or system male Beagle dogs; details: male, Beagle, plasma; dog, IV 1 mg/kg
observed_property: clearance (mL/min/kg)
A number alone suffices; assume mL/min/kg.

Entry "COc1ccc(CNc2nc(N3CCC[C@H]3CO)ncc2C(=O)NCc2ccccn2)cc1Cl" — recorded clearance = 24.3
